- System: Candida albicans ATCC 90028
- protocol.notes: Antifungal growth inhibition (CO-ADD)
- Format: cell-based
- measurement.context: percentage growth inhibition, absorbance at 530 nm; mean ± SEM
Where no end group is shown, it is not given here.
# Max response ± SEM annotations
Respond numerically, and do not add a unit to the figure.

>>> measured_value("ILPALIPVFASLLPWAIKKF-NH2 [Rm55b]")
3
>>> measured_value("FLPFLIPVIASLVSSLK-NH2 [Rm55a]")
3
>>> measured_value("VAPIVAMAGLGLFAAAVAGLDWLSKKV-NH2 [Rm1a]")
67
>>> measured_value("FIGGLIKFIAKFVPKILPFFQKKN-OH [Rm34a]")
100
>>> measured_value("RNVPRWFTPRL-NH2 [Rm52d]")
2

**Query** So what's the measured Max response ± SEM for this one? LWPFLISLIPTVIDLARNL-NH2 [Rm54a]
**Result** 10

**Query** So what's the measured Max response ± SEM for this one? ALWDTIKKWVAKVLPLVKNALK-NH2 [Rm20a]
**Result** 8
